The measurements presented in this section are drawn from ChEMBL document CHEMBL2034892.

Form field: pIC50 (one value per entry).
System name: Taste receptor type 2 member 31 (Homo sapiens, UniProt P59538)
Sequence (P59538 whole entry): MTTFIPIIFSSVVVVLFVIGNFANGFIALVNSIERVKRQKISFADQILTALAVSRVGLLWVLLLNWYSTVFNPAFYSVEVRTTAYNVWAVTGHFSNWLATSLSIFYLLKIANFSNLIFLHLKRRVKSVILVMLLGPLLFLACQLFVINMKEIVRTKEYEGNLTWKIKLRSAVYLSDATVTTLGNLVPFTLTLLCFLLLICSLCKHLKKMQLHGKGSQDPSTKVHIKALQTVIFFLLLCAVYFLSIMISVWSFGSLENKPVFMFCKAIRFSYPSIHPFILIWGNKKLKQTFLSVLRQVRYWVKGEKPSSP
Method description: Inhibition of human TAS2R31 receptor expressed in HEK293T cells overexpressing chimeric G-protein alpha-subunit
# pIC50 = -log10(concentration in molar units)

Known results for molecules:
- Test smiles: "COc1cc([C@@H]2CC(=O)c3c(O)cc(O)cc3O2)ccc1OC(=O)C(C)C"
  Measured quantity: "pIC50"
  Value measured: 5.70
- Test smiles: "COc1cc2c(c(O)c1OC)C(=O)C[C@@H](c1ccc(O)cc1)O2"
  Measured quantity: "pIC50"
  Value measured: 5.60
- Test smiles: "COc1cc(-c2cc(=O)c3c(O)c(OC)c(O)cc3o2)ccc1O"
  Measured quantity: "pIC50"
  Value measured: 4.95

Here is the next item to consider.
Identify the reported pIC50 for the following entry. COc1cc(O)c2c(c1)O[C@H](c1ccc(O)cc1)CC2=O
5.44

----------
Method description: Systemic availability in ip dosed C57BL/6 mouse
Format: ADME, organism-based
Study conditions: in vivo
Measured quantity: bioavailability (%)
Supply the numeric figure in %, leaving out any unit text.

Quick one: give measured bioavailability for COC(=O)[C@H]1[C@@H](O)[C@@]2(O)c3c(OC)cc(O[C@@H]4O[C@@H]([C@H](O)CO)CO[C@H]4OC)cc3O[C@@]2(c2ccc(OC)cc2)[C@@H]1c1ccccc1
100

----------
Method description: Oral bioavailability in C57BL/6 mouse
Type: ADME, organism-based
Study conditions: in vivo
Measured quantity: bioavailability (%)
Report as a plain number; the unit % is understood.

Return bioavailability (reported value) for this compound: COC(=O)[C@H]1[C@@H](O)[C@@]2(O)c3c(OC)cc(O[C@@H]4O[C@@H]([C@H](O)CO)CO[C@H]4OC)cc3O[C@@]2(c2ccc(OC)cc2)[C@@H]1c1ccccc1 [SILVESTROL]
1.7
